- TESTED ON: IKBKB (human) (UniProt O14920)
- Sequence (O14920 whole entry, looked up): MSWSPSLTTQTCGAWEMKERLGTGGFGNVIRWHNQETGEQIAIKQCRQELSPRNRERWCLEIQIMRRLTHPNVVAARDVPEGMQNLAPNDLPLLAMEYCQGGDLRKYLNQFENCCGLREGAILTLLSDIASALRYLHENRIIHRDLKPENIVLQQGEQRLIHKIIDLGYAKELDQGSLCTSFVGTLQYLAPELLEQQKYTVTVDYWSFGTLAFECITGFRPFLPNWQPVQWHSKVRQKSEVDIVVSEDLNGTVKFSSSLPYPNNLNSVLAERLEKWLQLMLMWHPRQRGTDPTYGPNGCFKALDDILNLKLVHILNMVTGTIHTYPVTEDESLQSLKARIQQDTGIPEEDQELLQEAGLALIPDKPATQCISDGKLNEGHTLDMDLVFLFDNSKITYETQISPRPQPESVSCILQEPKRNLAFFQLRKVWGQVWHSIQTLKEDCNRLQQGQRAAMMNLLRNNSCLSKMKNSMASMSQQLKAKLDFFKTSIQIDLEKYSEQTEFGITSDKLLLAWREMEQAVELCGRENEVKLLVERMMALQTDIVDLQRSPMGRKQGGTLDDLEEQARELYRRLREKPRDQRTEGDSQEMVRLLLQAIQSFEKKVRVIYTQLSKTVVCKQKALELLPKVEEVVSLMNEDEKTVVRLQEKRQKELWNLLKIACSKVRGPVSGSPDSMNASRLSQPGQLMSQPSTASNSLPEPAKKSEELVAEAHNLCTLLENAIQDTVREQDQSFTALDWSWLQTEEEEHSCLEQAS
- ASSAY DETAILS: radiometric filter-binding kinase assay
- CONDITIONS: compound 0.1 µM
MEASURED ENDPOINT: residual activity (%)
Your answer should be a plain number; it is taken to be in %.

Some molecules with recorded residual activity:
{"MOLECULE": "NC(=O)c1cc(-c2ccnc(NC3CCCCC3)c2)nc(N2CCNCC2)c1", "EXPERIMENTAL VALUE": 85}
{"MOLECULE": "COc1ccc2c(c1)c1c3c(c4c5ccccc5n(C)c4c1n2CC(O)CN(C)C)C(=O)NC3=O (stereo not given)", "EXPERIMENTAL VALUE": 104}
{"MOLECULE": "NC(=O)c1cc2c(-c3cccc(-c4ccccc4)c3)cnc(N)c2s1", "EXPERIMENTAL VALUE": 96}
{"MOLECULE": "CCn1c(-c2nonc2N)nc2cncc(CNC3CCNCC3)c21", "EXPERIMENTAL VALUE": 98}

Let's switch to this molecule now.
[Q] Give the value of residual activity reported for the following: Cc1ccc(-c2ccc3c(ccc4sc5c(c43)NC[C@@H](C)NC5=O)n2)cn1
[A] 115
